Field: IC50. System: L-lactate dehydrogenase A chain (Homo sapiens, UniProt P00338). Provenance: assorted publications.

Input: Report its IC50 with L-lactate dehydrogenase A chain (Homo sapiens, UniProt P00338) as the test system: Cc1ccc(C#Cc2cccc(-c3nn(-c4nc(C(=O)O)cs4)c(CC4CC4)c3Cc3ccc(S(N)(=O)=O)c(F)c3)n2)s1
Output: < 0.1 µM

Next:
Input: Fill in IC50 for O=C1CC(c2ccsc2)(c2cccc(OCC3CCCC3)n2)NC(=O)C1Sc1ccc(F)cc1Cl (stereo not drawn) tested with L-lactate dehydrogenase A chain (Homo sapiens, UniProt P00338).
Output: 0.5 to 10 µM

Input: Tell me its IC50 on L-lactate dehydrogenase A chain (Homo sapiens, UniProt P00338): CCOc1cccc(C2(c3ccsc3)CC(=O)C(Sc3ccc(F)cc3Cl)C(=O)N2)n1 (stereo not drawn)
Output: 10 to 50 µM

Input: Provide L-lactate dehydrogenase A chain (Homo sapiens, UniProt P00338) IC50 reading for NS(=O)(=O)c1ccc(Cc2c(-c3ccc(F)c(C4=CCC5(CC4)CC5)c3)nn(-c3nc(C(=O)O)cs3)c2CC2CC2)cc1F .
Output: < 0.1 µM

Input: For L-lactate dehydrogenase A chain (Homo sapiens, UniProt P00338), give IC50 of the listed compound: O=C1NC(c2ccc(N3CCOCC3)cc2)(c2ccsc2)CC(OC(=O)c2ccncc2)=C1Sc1cc(Cl)ccc1Cl (stereo not drawn)
Output: 0.5 to 10 µM

Input: // output IC50; input CCOC(=O)OC1=C(Sc2ccccc2Cl)C(=O)NC(c2ccsc2)(c2cccc(Br)n2)C1 (stereo not drawn) ; system L-lactate dehydrogenase A chain (Homo sapiens, UniProt P00338)
Output: > 200 µM

Input: Find IC50 for Cc1ccc(C(=O)Cc2cccc(-c3nn(-c4nc(C(=O)O)cs4)c(CC4CC4)c3Cc3ccc(S(N)(=O)=O)c(F)c3)c2)s1 on L-lactate dehydrogenase A chain (Homo sapiens, UniProt P00338) and write it down.
Output: < 0.1 µM

Input: Lab note: record IC50 of CCOC(=O)OC1=C(Sc2ccccc2Cl)C(=O)NC(c2ccc(Br)cc2)(c2ccsc2)C1 (stereo not drawn) tested on L-lactate dehydrogenase A chain (Homo sapiens, UniProt P00338).
Output: 1 to 100 µM

Input: Give IC50 for CC(=O)OC1=C(Sc2cc(Cl)ccc2Cl)C(=O)NC(c2ccc(N3CCOCC3)cc2)(c2ccsc2)C1 (stereo not drawn) tested on L-lactate dehydrogenase A chain (Homo sapiens, UniProt P00338).
Output: 10 to 50 µM

Input: Find IC50 for N#Cc1ccc(-c2cc(-c3nn(-c4nc(C(=O)O)cs4)c(CC4CC4)c3Cc3ccc(S(N)(=O)=O)c(F)c3)ccc2F)cc1 on L-lactate dehydrogenase A chain (Homo sapiens, UniProt P00338) and write it down.
Output: < 0.1 µM

Input: Param request: IC50 | system L-lactate dehydrogenase A chain (Homo sapiens, UniProt P00338) | item COCCOC(=O)OC1=C(Sc2ccc(Cl)cc2Cl)C(=O)NC(c2ccc(N3CCOCC3)cc2)(c2ccsc2)C1 (stereo not drawn)
Output: > 100 µM

Input: Lab note: record IC50 of NS(=O)(=O)c1ccc(Cc2c(-c3cccc(-c4ccc(O)c(F)c4)c3)nn(-c3nc(C(=O)O)cs3)c2CC2CC2)cc1F tested on L-lactate dehydrogenase A chain (Homo sapiens, UniProt P00338).
Output: < 0.1 µM

Input: Please report IC50 with L-lactate dehydrogenase A chain (Homo sapiens, UniProt P00338) for item O=C1CC(c2ccc(N3CCOCC3)cc2)(c2ccsc2)NC(=O)C1Sc1ccc(F)cc1Cl (stereo not drawn) .
Output: 0.1 to 0.5 µM

Input: # return IC50 of O=C1CC(c2ccsc2)(c2cccc(Br)n2)NC(=O)C1Sc1ccc(F)cc1Cl (stereo not drawn) (system: L-lactate dehydrogenase A chain (Homo sapiens, UniProt P00338))
Output: 10 to 50 µM

Input: Determine reported IC50 for CC(C)COC(=O)OC1=C(Sc2ccccc2Cl)C(=O)NC(c2ccc(N3CCOCC3)cc2)(c2ccsc2)C1 (stereo not drawn) ; test system: L-lactate dehydrogenase A chain (Homo sapiens, UniProt P00338).
Output: > 200 µM

Input: State measured IC50 of the compound NS(=O)(=O)c1ccc(Cc2c(-c3ccc(F)c(C4=CCCCC4)c3)nn(-c3nc(C(=O)O)cs3)c2CC2CC2)cc1F with L-lactate dehydrogenase A chain (Homo sapiens, UniProt P00338).
Output: < 0.1 µM

Input: Report value: IC50, system: L-lactate dehydrogenase A chain (Homo sapiens, UniProt P00338), compound: O=C1CC(c2ccc(N3CCOCC3)cc2)(c2ccsc2)NC(=O)C1Sc1cc(Cl)ccc1Cl (racemic)
Output: 0.1 to 0.5 µM

Input: Under L-lactate dehydrogenase A chain (Homo sapiens, UniProt P00338), report IC50 for O=C1CC(c2cncnc2)(c2ccsc2)OC(=O)C1Sc1ccccc1Cl (stereo not drawn)
Output: 0.5 to 10 µM

Input: Lab note: record IC50 of O=C1CC(c2ccc(N3CCOCC3)cc2)(c2ccsc2)NC(=O)C1Sc1cccc(Cl)c1Cl (stereo not drawn) tested on L-lactate dehydrogenase A chain (Homo sapiens, UniProt P00338).
Output: 0.5 to 10 µM

Input: Provide IC50, tested on L-lactate dehydrogenase A chain (Homo sapiens, UniProt P00338), for CC(=O)OC1=C(Sc2ccc(F)cc2Cl)C(=O)NC(c2ccsc2)(c2cccc(OCC3CCCC3)n2)C1 (stereo not drawn) .
Output: > 100 µM

Input: Lab note: record IC50 of O=C1N[C@H](Cc2ccccc2)C(O)=C1Sc1cc(Br)ccc1Cl tested on L-lactate dehydrogenase A chain (Homo sapiens, UniProt P00338).
Output: > 300 µM
